src = PubChem BioAssay (NCATS)

# Procedure text: qHTS of pediatric cancer cell lines to identify multiple opportunities for drug repurposing: Confirmatory screen for NB-EBc1 cells (AID 1347115);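 note: cells exposed to compound for 48 h before the viability read; nearly all actives have a fitted effect of over 45% in size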
# Test conditions: NB-EBc1 neuroblastoma cells, viability (cytotoxicity); series mostly up to 45.9 µM
Results filed as inconclusive are left out. Activity calls are given as the source filed them. Calls come from the whole dose curve; as a rule, active = well fitted cell-killing curve with a large enough effect; inconclusive = small, poorly fitted or top-dose-only effect, or effect the other way; inactive = no such curve, though single readings can be large or run the other way.
Classes used: t for active, f for inactive

1) Nc1[nH]c(=O)ncc1F ... f
2) NC(=O)c1cccnc1 ... t
3) O=C(NCC1CN(c2ccc(N3CCOCC3=O)cc2)C(=O)O1)c1ccc(Cl)s1 (stereo not given) ... f
4) CC(C(=O)O)c1ccc2c(c1)CC(=O)c1ccccc1S2 (stereo not given) ... f
5) COc1cc2nc(N3CCCN(C)CC3)nc(NC3CCN(Cc4ccccc4)CC3)c2cc1OC ... f
6) Oc1c(Cl)cc(Cl)c2cccnc12 ... t
7) CN(C)c1ccc(C(=C2C=CC(=[N+](C)C)C=C2)c2ccc(N(C)C)cc2)cc1 ... t
8) CC(C)C[C@H](NC(=O)[C@H](CCc1ccccc1)NC(=O)CN1CCOCC1)C(=O)N[C@@H](Cc1ccccc1)C(=O)N[C@@H](CC(C)C)C(=O)[C@@]1(C)CO1 ... t
9) CNC(=O)c1cc(Oc2ccc(NC(=O)Nc3ccc(Cl)c(C(F)(F)F)c3)cc2)ccn1 ... t
10) COc1cc2c(Nc3ccc(Br)cc3F)ncnc2cc1OCC1CCN(C)CC1 ... f
